Consider the following compounds; for each one, report its IC50.
- Tested on: D-502MG
- Run Description: cells
- Assay type: functional, cell-based, Homo sapiens
- Test Parameters: Homo sapiens, D-502MG
- Description: SANGER: Inhibition of human D-502MG cell growth in a cell viability assay.

Request: IC50, test system D-502MG, entry C#Cc1cccc(Nc2ncnc3cc(OCCOC)c(OCCOC)cc23)c1
> 2 µM

Please provide the recorded IC50 for COc1cc(N2CCN(C)CC2)ccc1Nc1ncc2c(n1)N(C)c1ccccc1C(=O)N2C , tested on D-502MG.
> 8 µM

Provide the documented IC50 with D-502MG as the system for Cc1cn(-c2cc(NC(=O)c3ccc(C)c(Nc4nccc(-c5cccnc5)n4)c3)cc(C(F)(F)F)c2)cn1
> 2 µM

Request body: readout IC50, system D-502MG, query CC(C)c1ccccc1Cc1cc(C(=O)Nc2ccc(S(=O)(=O)c3ccccc3C(C)(C)C)cc2)c(O)c(O)c1O . Return the value.
4.92 µM

Notebook entry, D-502MG assay: IC50 of Nc1ccn([C@@H]2O[C@H](CO)[C@@H](O)C2(F)F)c(=O)n1 = ?
> 1.02 µM

Notebook entry, D-502MG assay: IC50 of C=C(c1ccc(C(=O)O)cc1)c1cc2c(cc1C)C(C)(C)CCC2(C)C = ?
> 8 µM
